- EXPERIMENTAL TARGET: SULT1A3 (Homo sapiens, UniProt P0DMM9)
- Sequence (P0DMM9 whole entry): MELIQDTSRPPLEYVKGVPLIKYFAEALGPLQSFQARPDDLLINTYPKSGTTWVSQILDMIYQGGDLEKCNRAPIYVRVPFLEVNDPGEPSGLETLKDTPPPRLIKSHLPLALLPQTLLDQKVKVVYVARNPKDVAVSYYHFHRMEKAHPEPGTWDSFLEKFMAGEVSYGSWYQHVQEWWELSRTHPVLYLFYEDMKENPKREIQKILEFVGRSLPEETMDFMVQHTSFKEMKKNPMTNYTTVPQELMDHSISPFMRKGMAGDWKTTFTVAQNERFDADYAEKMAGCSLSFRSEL
- PROTOCOL DETAILS: Equilibrium binding studies, SULT1A3 intrinsic fluorescence titration
- Set-up: Wild-type and mutant SULT1A3 coding regions were inserted into a pGEX-6P expression vector; N-His/GST/MBP triple-tag (N, cleaved yes); made in house; host or cells: E. coli BL21(DE3)
- CONDITION PARAMETERS: read-out: Kd, affinity of 1-HP-S for SULT1A3
PROPERTY NAME: Kd

# input If you can, please state the reported Kd value of O=S(=O)(O)Oc1ccc2ccc3cccc4ccc1c2c34 [Compound 1-HP-S, reference compound] .
# output 240 µM
